# System: SK-MEL-5 melanoma
# assay-text: NCI tumour cell line growth inhibition, 48 h
measurement-type: GI50

compound="COc1ccc2nc3cccc([N+](=O)[O-])c3c(NC(C)CN(C)C)c2c1 (stereo not given)" reported_result="1180 nM"
compound="Cc1ccsc1-c1ccc2c(c1)COC2(CCCN(C)C)c1ccc(F)cc1 (stereo not given)" reported_result="1780 nM"
compound=CC(=O)OCCCC#CC#Cc1cccc(=O)o1 reported_result="16100 nM"
compound=Cn1c(=O)c(Oc2ccc(F)cc2F)cc2cnc(NC3CCOCC3)nc21 reported_result="> 25000 nM"
compound=COc1cc(/C=C/C(=O)c2c(-c3ccc(F)cc3)nc3sc(C)nn23)cc(OC)c1OC reported_result="1860 nM"
compound=O=C1NC(=NCCc2ccccn2)S/C1=C\c1ccc2ncccc2c1 reported_result="10800 nM"
compound=CC(=O)N[C@@H](Cc1ccc(OP(=O)(O)O)cc1)C(=O)N[C@H]1CCC(=O)N2CCC[C@@H](C(=O)NCc3ccccc3)N2C1=O reported_result="> 25000 nM"
compound=COc1cc(CCNC(=O)OC(C)(C)C)c2c(c1OC)SSSSS2 reported_result="1840 nM"
compound="O=C1c2c(Cl)c(Cl)c(Cl)c(Cl)c2C(=O)C2(Cl)CC=CCC12Cl (stereo not given)" reported_result="1770 nM"
compound="O=C1CC(N2C(=O)/C(=C/C(Cl)=C\\c3ccc([N+](=O)[O-])cc3)SC2=S)C(=O)N1c1ccc(O)cc1 (stereo not given)" reported_result="1920 nM"

###

# Tested on: COLO 205 colon
# assay-text: NCI tumour cell line growth inhibition, 48 h
// reported TGI per item
measurement-type: TGI

compound=CC1=CC(=O)N(n2c(Cc3ccc(Cl)cc3)n[nH]c2=O)C1=O reported_result="> 100 µM"
compound=CN(/N=C\c1ccnc2ccccc12)c1ccccc1 reported_result="39.8 µM"
compound="CN1C(=O)C2(c3ccccc31)C1CC3C(CO1)C1C2C3(CO)CN1C#N (stereo unspecified)" reported_result="> 100 µM"
compound=COc1ccc2c(c1)CCCc1c-2nc2ccccc2c1N reported_result="3.22 µM"
compound=Cn1c(=O)c(Oc2ccc(F)cc2F)cc2cnc(NC3CCOCC3)nc21 reported_result="> 25 µM"
compound=CC(=O)Oc1ccc2cc(-c3ccc(OC(C)=O)c(OC(C)=O)c3)c(=O)oc2c1 reported_result="> 100 µM"

###

# System: SK-MEL-28 melanoma
# assay-text: NCI tumour cell line growth inhibition, 48 h
// reported GI50 per item
measurement-type: GI50

compound=O=[N+]([O-])c1ccc2c(c1)C(c1ccccc1Cl)=Nc1c(n[nH]c1-c1cccnc1)N2 reported_result="> 25000 nM"
compound=COc1ccc(NC(=O)c2ccc(NC3=C(Cl)C(=O)N(Cc4ccccc4)C3=O)cc2)c(OC)c1 reported_result="83300 nM"
compound=NC(=O)c1cc(Br)ccc1NC(=O)/C=C/c1ccccc1 reported_result="1420 nM"
compound=CC(=O)N[C@@H](Cc1ccc(OP(=O)(O)O)cc1)C(=O)N[C@H]1CCC(=O)N2CCC[C@@H](C(=O)NCc3ccccc3)N2C1=O reported_result="> 25000 nM"
compound=Cc1ccc(OCCOCCOCCOCCOCCOc2ccc(C)n(O)c2=S)c(=S)n1O reported_result="230 nM"
compound="O=C1c2c(Cl)c(Cl)c(Cl)c(Cl)c2C(=O)C2(Cl)CC=CCC12Cl (centres undefined)" reported_result="1800 nM"
compound=C/C=C(\C)C(=O)O[C@H]1C=CC(=O)O[C@H]1COC(=O)[C@H](C)O reported_result="3530 nM"
compound=CN(C)Cc1c(C(=O)NCCOc2ccc(C(=O)NO)cc2)oc2ccccc12 reported_result="267 nM"
compound="N#CC1=C(N)Oc2c(sc3c(Br)cccc23)C1c1ccc(Cl)cc1 (centres undefined)" reported_result="1150 nM"

###

# System: CCRF-CEM leukemia
# assay-text: NCI tumour cell line growth inhibition, 48 h; in the data active = GI50 below about 0.43 µM; inactive = the rest
Outcome codes: active, inactive

compound="C=C1CC2C3C=C(C)C4=CC(=O)CC[C@]4(C)C3CC[C@]2(C)[C@@]1(OC(C)=O)C(C)=O (some centres undefined)" qualitative_label=inactive
compound=C=CC(=O)Nc1cccc(Oc2nc(Nc3ccc(N4CCN(C)CC4)cc3OC)ncc2Cl)c1 qualitative_label=inactive
compound=COc1cc2c(c(OC)c1OC)-c1c(c3ccc([N+](=O)[O-])cc3c(=O)n1CCCN)C2=O qualitative_label=inactive
compound=CN(C)CCS(=O)(=O)Nc1cc(-c2ccc3ncc(C#N)c(Nc4ccc(F)c(Cl)c4)c3c2)cnc1Cl qualitative_label=active
compound=Cc1ccc(OCCOCCOCCOCCOCCOc2ccc(C)n(O)c2=S)c(=S)n1O qualitative_label=active
compound=Cn1c(=O)c(Oc2ccc(F)cc2F)cc2cnc(NC3CCOCC3)nc21 qualitative_label=inactive
compound=CN(C)CCOc1ccccc1NC1=C(Cl)C(=O)C(Nc2ccccc2OCCN(C)C)=C(Cl)C1=O qualitative_label=inactive
compound=NC(=O)c1cc(Br)ccc1NC(=O)/C=C/c1ccccc1 qualitative_label=inactive
compound=COc1cc(CCC(=O)NC[C@@H](O)c2ccccc2)ccc1O qualitative_label=inactive

###

# System: NCI-H23 lung
# assay-text: NCI tumour cell line growth inhibition, 48 h
Where a SMILES comes first, the peptide text is derived from it.
measurement-type: TGI

molecule=C(#CC1(Nc2ccccc2)CCN(Cc2ccccc2)CC1)C1(Nc2ccccc2)CCN(Cc2ccccc2)CC1 measured_on="NCI-H23 lung" reported_result="> 56.2 µM"
molecule="COC(=O)C1[C@H](c2ccc3c(c2)OCO3)OC(=O)[C@]1(C(=O)OC)C(=O)c1ccc(OC)c(OC)c1 (some centres undefined)" measured_on="NCI-H23 lung" reported_result="> 100 µM"
molecule=Cn1c(=O)c(Oc2ccc(F)cc2F)cc2cnc(NC3CCOCC3)nc21 measured_on="NCI-H23 lung" reported_result="> 25 µM"
molecule="CCC(C)C(NC(=O)C(CC(C)C)NC(=O)CNC(=O)C(NC(=O)C1CCCN1C(=O)C(CC(C)C)NC(=O)C(N)Cc1ccccc1)C(C)CC)C(=O)NC(CC(C)C)C(N)=O (centres undefined) (H-FLPIGLIL-NH2; configuration not given here)" measured_on="NCI-H23 lung" reported_result="> 75 µM"
molecule=COc1ccc2c(c1OC)C(=O)N/C2=C\c1c(CCN(C)C)cc2c(c1OC)OCO2 measured_on="NCI-H23 lung" reported_result="> 100 µM"
molecule=C=CC(=O)N1CC[C@H](n2nc(C#Cc3cc(OC)cc(OC)c3)c3c(N)ncnc32)C1 measured_on="NCI-H23 lung" reported_result="> 100 µM"
molecule=C/C(=N/O)c1sc(-c2nc(C)c(/C(C)=N\O)s2)nc1C measured_on="NCI-H23 lung" reported_result="> 100 µM"
molecule=CN(C)C(=NC#N)N(Cc1ccccc1)Cc1ccccc1 measured_on="NCI-H23 lung" reported_result="> 100 µM"
molecule="CC(=O)Nc1cc2nc3n(c2cc1C)CCC3OC(C)=O (centres undefined)" measured_on="NCI-H23 lung" reported_result="> 100 µM"
molecule=O=C(O)CN(c1ccc(F)cc1)S(=O)(=O)c1ccccc1 measured_on="NCI-H23 lung" reported_result="> 100 µM"
molecule="CC1(C)CCCCCCCCCC2CC2CCC(C)(C)C1=O (centres undefined)" measured_on="NCI-H23 lung" reported_result="> 100 µM"
molecule=Cc1cc2c(cc1Cl)SC(NNC1=NCCN1)=NS2(=O)=O measured_on="NCI-H23 lung" reported_result="> 10 µM"
molecule=CCN(CCO)CCNc1ccc(C)c2sc3ccccc3c(=O)c12 measured_on="NCI-H23 lung" reported_result="21.3 µM"
molecule=COc1ccc(-c2nc3c(C(=O)NCCN(C)C)cccc3c3ccccc23)cc1 measured_on="NCI-H23 lung" reported_result="19.6 µM"
molecule="CCC12C=CCN3CCC4(c5cc(C(c6ccc(OC)cc6)C6Cc7ccccc7N6)c(OC)cc5N(C)C4C(O)(C(=O)OC)C1O)C32 (centres undefined)" measured_on="NCI-H23 lung" reported_result="> 100 µM"
molecule=COC(=O)Cn1c(=O)oc2nc(-c3ccccc3)cc(C(F)(F)F)c21 measured_on="NCI-H23 lung" reported_result="> 100 µM"
molecule="N#CC1=C(N)Oc2c(sc3c(Br)cccc23)C1c1ccc(Cl)cc1 (centres undefined)" measured_on="NCI-H23 lung" reported_result="4.86 µM"
molecule=O=C1c2cc(F)ccc2-c2c1c1ccc([N+](=O)[O-])cc1c(=O)n2CCCBr measured_on="NCI-H23 lung" reported_result="85.4 µM"
molecule=O=C(c1ccccc1)c1nc2ccc(C(F)(F)F)cc2nc1N1CCN(c2ccccc2)CC1 measured_on="NCI-H23 lung" reported_result="69.5 µM"
